# experiment description: Inhibition of HCV BK NS5B polymerase deltaC21 mutant
# Type: single protein, NS5B polymerase (HCV isolate BK)
pIC50: −log10 of the molar value.
Catalogue of compounds with associated pIC50

[
  {
    "compound": "CN(C)CCNC(=O)N1CC[C@H]2Cn3c(c(C4CCCCC4)c4ccc(C(=O)O)cc43)-c3ccccc3[C@@H]21",
    "pIC50": 7.62
  },
  {
    "compound": "CN1CC[C@H]2Cn3c(c(C4CCCCC4)c4ccc(C(=O)O)cc43)-c3ccccc3[C@H]21",
    "pIC50": 6.85
  },
  {
    "compound": "CN(C)CCN1CCn2c(c(C3CCCCC3)c3ccc(C(=O)O)cc32)-c2ccccc2C1",
    "pIC50": 7.57
  },
  {
    "compound": "COc1ccc2c(c1)[C@H]1[C@@H](CCN1CCN(C)C)Cn1c-2c(C2CCCCC2)c2ccc(C(=O)O)cc21 (stereo in doubt; 8b)",
    "pIC50": 8.10
  },
  {
    "compound": "CN(C)CCN1CCn2c(c(C3CCCCC3)c3ccc(C(=O)O)cc32)-c2ccccc21",
    "pIC50": 7.55
  },
  {
    "compound": "CN1CC[C@@H]2c3ccccc3-c3c(C4CCCCC4)c4ccc(C(=O)O)cc4n3C[C@@H]21",
    "pIC50": 7.70
  }
]
